Assay: in vitro
Conditions: human
PROPERTY_LABEL: viability at 0.00625 µM

Please report the measured viability at 0.00625 µM for CC(=O)O[C@H]1C(=O)[C@@]2(C)[C@H]([C@H](OC(=O)c3ccccc3)[C@]3(O)C[C@H](OC(=O)[C@H](O)[C@@H](NC(=O)c4ccccc4)c4ccccc4)C(C)=C1C3(C)C)[C@]1(OC(C)=O)CO[C@@H]1C[C@@H]2O [Paclitaxel, reference compound] 61.9%

Where these numbers come from: patent US11649460B2
